Test: Inhibition of dynamin 1 GTPase activity in sheep brain peripheral membrane by microplate spectrophotometry
Type: cell membranes, Ovis aries
pIC50: −log10 of the molar value.
Parameter: pIC50

Endpoint output: pIC50 of C=C(C)C(CC)CCC(C)C1C(O)CC2C3CCC4CC(O)CCC4(C)C3CC(O)C21C (stereo unspecified) . Value?
< 3.52
